Provenance of the data: BigSolDB 2.1

Conditions: in NMP, 278.15 K
readout type: solubility (mole fraction)

Using the record for "CN1COCN(Cc2cnc(Cl)s2)C1=N[N+](=O)[O-]" , state its measured solubility (mole fraction).
0.0818

----------
Settings: in ethyl acetate, 288.15 K
readout type: solubility (mole fraction)
I only need the number, thanks.

Using the record for "CN1COCN(Cc2cnc(Cl)s2)C1=N[N+](=O)[O-]" , state its measured solubility (mole fraction).
0.00155

----------
Settings: in NMP, 313.15 K
readout type: solubility (mole fraction)
I only need the number, thanks.

Using the record for "CN1COCN(Cc2cnc(Cl)s2)C1=N[N+](=O)[O-]" , state its measured solubility (mole fraction).
0.138
